Molecular target: UniProt P29597
Sequence (P29597 whole entry): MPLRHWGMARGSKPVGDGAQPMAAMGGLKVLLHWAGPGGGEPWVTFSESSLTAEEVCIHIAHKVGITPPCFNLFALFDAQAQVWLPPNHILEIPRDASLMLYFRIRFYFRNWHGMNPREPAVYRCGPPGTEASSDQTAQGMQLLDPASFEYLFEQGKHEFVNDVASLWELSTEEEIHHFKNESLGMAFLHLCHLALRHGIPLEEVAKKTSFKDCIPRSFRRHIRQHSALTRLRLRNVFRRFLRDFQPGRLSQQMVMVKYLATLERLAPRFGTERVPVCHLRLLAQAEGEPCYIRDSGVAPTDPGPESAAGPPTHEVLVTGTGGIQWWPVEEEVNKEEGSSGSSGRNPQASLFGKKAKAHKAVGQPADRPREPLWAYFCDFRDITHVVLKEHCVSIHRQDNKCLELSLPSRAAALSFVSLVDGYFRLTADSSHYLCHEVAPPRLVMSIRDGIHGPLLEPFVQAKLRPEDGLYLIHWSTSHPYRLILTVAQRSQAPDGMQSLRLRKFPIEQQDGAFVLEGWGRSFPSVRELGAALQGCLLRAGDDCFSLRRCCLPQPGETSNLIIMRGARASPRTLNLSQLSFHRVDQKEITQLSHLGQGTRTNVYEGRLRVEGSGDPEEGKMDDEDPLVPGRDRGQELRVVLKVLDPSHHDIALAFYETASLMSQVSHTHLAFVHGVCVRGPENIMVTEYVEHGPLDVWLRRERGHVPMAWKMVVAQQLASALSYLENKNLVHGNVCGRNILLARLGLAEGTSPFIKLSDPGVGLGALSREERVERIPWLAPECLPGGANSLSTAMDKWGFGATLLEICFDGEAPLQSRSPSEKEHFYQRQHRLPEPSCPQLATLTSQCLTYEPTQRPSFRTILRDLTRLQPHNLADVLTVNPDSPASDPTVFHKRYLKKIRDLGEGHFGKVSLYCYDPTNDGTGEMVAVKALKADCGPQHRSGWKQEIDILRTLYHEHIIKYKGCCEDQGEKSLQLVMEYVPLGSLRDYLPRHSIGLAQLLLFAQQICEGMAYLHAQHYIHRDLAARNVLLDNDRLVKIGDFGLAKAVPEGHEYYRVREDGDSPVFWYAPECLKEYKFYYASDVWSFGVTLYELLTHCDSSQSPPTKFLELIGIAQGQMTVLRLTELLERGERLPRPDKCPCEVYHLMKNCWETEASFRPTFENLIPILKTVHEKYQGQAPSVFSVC
Experiment: pSTAT4 Cell Assay (MSD, NK92 cells)
Assay type: cell-based
Settings: MSD
Experimental: The inhibitory potency of compounds of the disclosure against the Tyk2 kinase activity on STAT4 was evaluated using an MSD-platform plate-based assay format. NK92 cells natively expressing STAT4 and Tyk2 were serum-starved to reduce background phosphorylation levels, then cells were treated compounds for 1 hr with a 10-point four-fold dilution series starting at 10 μM. Cells were then stimulated with 30 ng/mL IL2 for 15 minutes. […]
ENDPOINT: IC50

Request: What does the record list as IC50 for CC(=O)Nc1cc(Nc2cc(C)nc(C(C)(F)F)n2)c(OC[C@@H]2COC(C)(C)O2)cn1 [Example 110] ?
Response: 10 to 100 nM

Request: Param item: CC(=O)Nc1cc(Nc2cc(C)nc(C(C)(F)F)n2)c(OCC2CCCN2C)cn1 (stereo not shown) [Example 479]
Response: 100 to 1000 nM

Request: // repeat for COCCOc1cnc(NC(C)=O)cc1Nc1cc(C)nc(C(C)CF)n1 (stereo not shown) [Example 82] and report
Response: 10 to 100 nM

Request: Cool, now CC(=O)Nc1cc(Nc2cc(C)nc(C(C)(F)F)n2)c(OC[C@@H]2CCC[C@H](C)O2)cn1 (stereo in doubt) [Example 442]
Response: 10 to 100 nM

Request: Ok, now CC(=O)Nc1cc(Nc2ccnc(C(C)(F)F)n2)c(-c2ccc(CN3C[C@H]4C[C@@H](C3)O4)cn2)cn1 [Example 702]
Response: ≤ 10 nM

Request: What do we get for COCc1ccc(-c2cnc(NC(C)=O)cc2Nc2cc(C)nc(C(C)(F)F)n2)nc1 [Example 634] ?
Response: ≤ 10 nM

Request: Try the compound COc1cnc(NC(C)=O)cc1Nc1cc(-c2cnn(C(C)C)c2F)nc(C(C)(F)F)n1 [Example 383]
Response: 10 to 100 nM

Request: Check COCCOc1cc(Nc2cc(NC(C)=O)ncc2-c2ccn(C)n2)nc(C(C)(F)F)n1 [Example 207] too.
Response: ≤ 10 nM

Request: Item: COCCOc1cnc(NC(C)=O)cc1Nc1cc(OC(C)C)nc(C(C)(F)F)n1 [Example 76]
Response: ≤ 10 nM

Request: // query: CC(=O)Nc1cc(Nc2cc(C)nc(C(C)(F)F)n2)c(OCC2CCC(=O)O2)cn1 (stereo not shown) [Example 499]
Response: 10 to 100 nM

Request: // same read-out, input: CC(=O)Nc1cc(Nc2cc(C)nc(C(C)(F)F)n2)c(OCc2cccc(F)c2)cn1 [Example 466]
Response: 10 to 100 nM

Request: Proceed to CC(=O)Nc1cc(Nc2cc(C)nc(C(C)(F)F)n2)c(-n2cc(C)cn2)cn1 [Example 729]
Response: ≤ 10 nM

Request: One more compound: COc1cnc(NC(C)=O)cc1Nc1cc(-c2cnc(N3CCOCC3)nc2)nc(C(C)(F)F)n1 [Example 390]
Response: 100 to 1000 nM

Request: What about this compound? CC(=O)Nc1cc(Nc2cc(C)nc(C(C)(F)F)n2)c(OCc2conc2C)cn1 [Example 335]
Response: 100 to 1000 nM

Request: And the next one, CC(=O)Nc1cc(Nc2cc(C)nc(C(C)(F)F)n2)c(-c2cc(C)ncn2)cn1 [Example 197] ?
Response: ≤ 10 nM

Request: Query CC(=O)Nc1cc(Nc2cc(C)nc(C(C)(F)F)n2)c(-c2cc(C(C)(C)O)n(C)n2)cn1 [Example 272] next
Response: ≤ 10 nM
